Reference source: ChEMBL document CHEMBL4038324

// reported inhibition per item
biological target: UniProt P34972; experiment: Antagonist activity at human CB2 receptor expressed in CHO cells assessed as inhibition of CP55940-induced Ca2+ flux at 10 uM preincubated for 10 mins followed by agonist addition by Fluor-4 AM dye based assay; type: functional, cell-based

COMPOUND | MEASUREMENT TYPE | RESULT
O=C(NC1CCCCC1)c1cc2ccccc2n1CCCCCO | inhibition | < 50%
N#CCCCn1cc(C(=O)NC23CC4CC(CC(C4)C2)C3)c2ccccc21 | inhibition | < 50%
O=C(NC12CC3CC(CC(C3)C1)C2)c1cc2ccccc2n1CCCO | inhibition | < 50%

Problem: Retrieve inhibition on UniProt P34972; query O=C(NC12CC3CC(CC(C3)C1)C2)c1cc2ccccc2[nH]1
Solution: < 50%

Problem: For UniProt P34972, give inhibition of the listed compound: COc1ccc2c(c1)c(C(=O)NC13CC4CC(CC(C4)C1)C3)cn2CCN1CCOCC1
Solution: < 50%

Problem: Under UniProt P34972: report inhibition of O=C(NC12CC3CC(CC(C3)C1)C2)c1cc2ccccc2n1CCCCCO .
Solution: < 50%

Problem: Lab note: record inhibition of C[S+]([O-])c1cccc2c(C(=O)NC34CC5CC(CC(C5)C3)C4)cn(CCN3CCOCC3)c12 (stereo not given) tested on UniProt P34972.
Solution: < 50%

Problem: Look up and report inhibition, with UniProt P34972 as system, for O=C(NC12CC3CC(CC(C3)C1)C2)c1cc2ccccc2n1CCCC(F)(F)F
Solution: < 50%

Problem: Find the measured inhibition of O=C(NC1CCCC1)c1cc2ccccc2n1CCCCCO with UniProt P34972 as test system.
Solution: < 50%

Problem: Give reported inhibition for N#CCn1cc(C(=O)NC23CC4CC(CC(C4)C2)C3)c2ccccc21 (UniProt P34972)
Solution: < 50%

====

molecular target: Cannabinoid receptor 2 (Homo sapiens, UniProt P34972); experiment: Agonist activity at human N-terminal HA-tagged CB2 receptor expressed in mouse AtT20 cells by FLIPR membrane potential assay; type: cell-based
Sequence (P34972 whole entry): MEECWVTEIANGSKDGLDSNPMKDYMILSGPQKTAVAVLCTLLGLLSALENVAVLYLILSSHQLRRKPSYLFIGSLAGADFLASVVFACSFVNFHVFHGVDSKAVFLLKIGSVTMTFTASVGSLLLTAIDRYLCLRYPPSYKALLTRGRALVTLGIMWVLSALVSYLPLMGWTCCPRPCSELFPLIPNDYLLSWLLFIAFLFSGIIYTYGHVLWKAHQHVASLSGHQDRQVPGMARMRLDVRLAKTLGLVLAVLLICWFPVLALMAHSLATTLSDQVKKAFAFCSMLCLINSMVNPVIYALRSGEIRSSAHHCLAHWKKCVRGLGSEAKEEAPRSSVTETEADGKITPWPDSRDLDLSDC
# EC50 per entry

SMILES RECORD | EC50
CCCCCn1cc(C(=O)C23CC4CC(CC(C4)C2)C3)c2ccccc21 | 29 to 89 nM

Problem: Item CCCCCn1cc(C(=O)CC23CC4CC(CC(C4)C2)C3)c2ccccc21 : provide EC50
Solution: 29 to 89 nM

Problem: Provide EC50 value for the following compound: CCCCCn1cc(C(=O)NC23CC4CC(CC(C4)C2)C3)c2ccccc21
Solution: 29 nM

====

target: Cannabinoid receptor 1 (CB1) (Homo sapiens); test: Agonist activity at human CB1 receptor expressed in CHO cells assessed as induction of Ca2+ flux after 10 mins by Fluor-4 AM dye based assay relative to CP55940; assay type: cell-based; details: CHO cells expressing human CB1 receptor
Is Emax at 10 min at least 70%? Then satisfied. If not, not satisfied.

// below: answered compounds
SMILES RECORD | CATEGORY LABEL
O=C(NC12CC3CC(CC(C3)C1)C2)c1cn(CCCCO)c2ccccc12 | not satisfied
O=C(NC12CC3CC(CC(C3)C1)C2)c1cn(CCCCCO)c2ccccc12 | satisfied
Cc1cccc2c(C(=O)NC34CC5CC(CC(C5)C3)C4)cn(CCN3CCOCC3)c12 | not satisfied
O=C(NC12CC3CC(CC(C3)C1)C2)c1cn(CCN2CCOCC2)c2ccccc12 | satisfied
O=C(NC12CC3CC(CC(C3)C1)C2)c1cn(CC2CCOCC2)c2ccccc12 | satisfied

Field: next compound
Problem: Reported Emax at 10 min at or above 70%? N#CCCCn1cc(C(=O)NC23CC4CC(CC(C4)C2)C3)c2ccccc21
Solution: satisfied

====

experiment: Half life in C57 mouse at 10 mg/kg, ip measured up to 2 hrs by LC-MS/MS analysis; assay type: ADME, organism-based; conditions: in vivo
MEASUREMENT TYPE: half-life (h)
All answers are understood in h, so give the number only.

Problem: Given O=C(NC12CC3CC(CC(C3)C1)C2)c1cc2ccccc2n1CCCCO , respond with its half-life.
Solution: 1.04

====

target: Cannabinoid receptor 1 (Homo sapiens, UniProt P21554); test: Agonist activity at human CB1 receptor expressed in CHO cells assessed as induction of Ca2+ flux after 10 mins by Fluor-4 AM dye based assay
Sequence (P21554 whole entry): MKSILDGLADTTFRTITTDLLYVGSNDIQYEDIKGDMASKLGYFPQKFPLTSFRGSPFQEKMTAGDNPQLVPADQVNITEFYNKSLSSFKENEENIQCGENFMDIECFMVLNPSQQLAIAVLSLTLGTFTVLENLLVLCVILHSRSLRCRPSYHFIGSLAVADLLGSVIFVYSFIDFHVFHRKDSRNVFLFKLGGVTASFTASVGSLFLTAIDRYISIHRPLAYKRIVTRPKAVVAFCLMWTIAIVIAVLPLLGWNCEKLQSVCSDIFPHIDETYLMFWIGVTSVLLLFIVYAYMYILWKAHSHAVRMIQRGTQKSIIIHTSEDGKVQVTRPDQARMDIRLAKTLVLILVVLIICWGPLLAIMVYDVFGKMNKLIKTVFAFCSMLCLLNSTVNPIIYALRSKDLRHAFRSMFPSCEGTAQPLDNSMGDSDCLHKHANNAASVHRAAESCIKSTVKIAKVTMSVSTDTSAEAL
MEASUREMENT TYPE: EC50 (µM)
Numbers only here, please. The scale is µM.

SMILES RECORD | TARGET OR TEST SYSTEM | EC50 [µM]
CCCCCn1cc(C(=O)NC23CC4CC(CC(C4)C2)C3)c2ccccc21 | Cannabinoid receptor 1 (Homo sapiens, UniProt P21554) | 0.039
O=C(NC12CC3CC(CC(C3)C1)C2)c1cn(CCCCCO)c2ccccc12 | Cannabinoid receptor 1 (Homo sapiens, UniProt P21554) | 4.1
Cc1cccc2c(C(=O)NC34CC5CC(CC(C5)C3)C4)cn(CCN3CCOCC3)c12 | Cannabinoid receptor 1 (Homo sapiens, UniProt P21554) | 6.7
O=C(NC12CC3CC(CC(C3)C1)C2)c1cn(CC2CCOCC2)c2ccccc12 | Cannabinoid receptor 1 (Homo sapiens, UniProt P21554) | 0.084
N#CCCCn1cc(C(=O)NC23CC4CC(CC(C4)C2)C3)c2ccccc21 | Cannabinoid receptor 1 (Homo sapiens, UniProt P21554) | 0.63

Problem: Give the value of EC50 reported for the following: O=C(NC12CC3CC(CC(C3)C1)C2)c1cn(CCCCO)c2ccccc12
Solution: 13

Problem: Look up and state reported EC50 for O=C(NC12CC3CC(CC(C3)C1)C2)c1cn(CCN2CCOCC2)c2ccccc12
Solution: 3.3

====

assay: Elimination rate constant in C57 mouse at 10 mg/kg, ip measured up to 2 hrs by LC-MS/MS analysis; format: ADME, organism-based; conditions: in vivo
MEASUREMENT TYPE: k el at 2 h (s⁻¹)
Numbers only; they are read as s⁻¹.

Problem: Please report k el at 2 h for the following molecule: O=C(NC12CC3CC(CC(C3)C1)C2)c1cc2ccccc2n1CCCCO
Solution: 0.000189

====

test: AUC (0 to infinity) in C57 mouse at 10 mg/kg, ip measured up to 2 hrs by LC-MS/MS analysis; type: ADME, organism-based; parameters: dose 10 mg/kg, time infinity, route intraperitoneal; conditions: in vivo
MEASUREMENT TYPE: AUC(0-inf) (ng·h/mL)
Give the number; ng·h/mL is assumed, so skip it.

Problem: Provide measured AUC(0-inf) value, entry: O=C(NC12CC3CC(CC(C3)C1)C2)c1cc2ccccc2n1CCCCO
Solution: 428

====

experiment: Cmax in C57 mouse at 10 mg/kg, ip measured up to 2 hrs by LC-MS/MS analysis; format: ADME, organism-based; set-up: dose 10 mg/kg, route intraperitoneal; conditions: in vivo
MEASUREMENT TYPE: Cmax

Problem: Assign Cmax to the following record: O=C(NC12CC3CC(CC(C3)C1)C2)c1cc2ccccc2n1CCCCO
Solution: 350 ng/mL

====

molecular target: Cannabinoid receptor 2 (Homo sapiens, UniProt P34972); assay: Agonist activity at human CB2 receptor expressed in CHO cells assessed as induction of Ca2+ flux after 10 mins by Fluor-4 AM dye based assay relative to CP55940; format: functional, cell-based
MEASUREMENT TYPE: Emax (%)
Please reply with the bare figure in % and do not write the unit itself.

Example entries begin here.
SMILES RECORD | Emax (%)
O=C(NC12CC3CC(CC(C3)C1)C2)c1c[nH]c2ccccc12 | 75
O=C(NC12CC3CC(CC(C3)C1)C2)c1cc2ccccc2[nH]1 | 66.7

As a next step, examine the molecule that follows.
Problem: Supply measured Emax of O=C(NC12CC3CC(CC(C3)C1)C2)c1cc2ccccc2n1CCCCO in your reply.
Solution: 85

====

target: Cannabinoid receptor 2 (Homo sapiens); assay: Agonist activity at human CB2 receptor expressed in CHO cells assessed as induction of Ca2+ flux after 10 mins by Fluor-4 AM dye based assay relative to CP55940; format: functional, cell-based
Documented Emax across a set of compounds
Report the value in % with no unit label.

Recorded Emax, per entry:
SMILES RECORD | UNIT STRING | NUMBER
N#CCCn1c(C(=O)NC23CC4CC(CC(C4)C2)C3)cc2ccccc21 | % | 93.3
O=C(NC12CC3CC(CC(C3)C1)C2)c1cc2ccccc2n1CCCCCO | % | 70
N#CCCCn1c(C(=O)NC23CC4CC(CC(C4)C2)C3)cc2ccccc21 | % | 61.7

Problem: Report value: Emax, system: Cannabinoid receptor 2 (Homo sapiens), compound: O=C(NC12CC3CC(CC(C3)C1)C2)c1cc2ccccc2n1CCCO
Solution: 86.7

Problem: Report Emax from Cannabinoid receptor 2 (Homo sapiens) testing of COCCCCCn1cc(C(=O)NC23CC4CC(CC(C4)C2)C3)c2ccccc21
Solution: 70

Problem: Provide Emax, tested on Cannabinoid receptor 2 (Homo sapiens), for N#CCCn1cc(C(=O)NC23CC4CC(CC(C4)C2)C3)c2ccccc21 .
Solution: 73.3

Problem: Lab note: record Emax of O=C(NC12CC3CC(CC(C3)C1)C2)c1c(F)c2ccccc2n1CCCCCO tested on Cannabinoid receptor 2 (Homo sapiens).
Solution: 60

Problem: For Cannabinoid receptor 2 (Homo sapiens), give the measured Emax of the entry O=C(NC12CC3CC(CC(C3)C1)C2)c1cn(CC2CCOCC2)c2ccccc12
Solution: 76.7

Problem: Would you please give the reported Emax of N#CCn1cc(C(=O)NC23CC4CC(CC(C4)C2)C3)c2ccccc21 with Cannabinoid receptor 2 (Homo sapiens)?
Solution: 66.3

Problem: Give the observed Emax of O=C(NC1CCCCC1)c1cc2ccccc2n1CCCCCO for Cannabinoid receptor 2 (Homo sapiens).
Solution: 50

Problem: Please indicate recorded Emax of O=C(NC12CC3CC(CC(C3)C1)C2)c1cc2ccccc2n1CCCC(F)(F)F measured with Cannabinoid receptor 2 (Homo sapiens).
Solution: 63.3

Problem: Give measured Emax for NCCCCCn1c(C(=O)NC23CC4CC(CC(C4)C2)C3)cc2ccccc21 (Cannabinoid receptor 2 (Homo sapiens)).
Solution: 93.3

Problem: Consider the compound O=C(NC12CC3CC(CC(C3)C1)C2)c1cc2ccccc2n1CCCCCF tested on Cannabinoid receptor 2 (Homo sapiens); state its Emax.
Solution: 53.3

Problem: Give the observed Emax of N#CCCCCn1c(C(=O)Nc2ccccc2)cc2ccccc21 for Cannabinoid receptor 2 (Homo sapiens).
Solution: 48.3

Problem: Please respond with reported Emax (system Cannabinoid receptor 2 (Homo sapiens)) for O=C(NC12CC3CC(CC(C3)C1)C2)c1cc2ccccc2n1CCCCC(F)F .
Solution: 60
